Target: Lysine-specific demethylase 5B (Homo sapiens)
Experiment: Optimization screen for KDM5B Histone Demethylases FDH coupled qHTS against the LOPAC library (AID 1347166); also: 0% is about no effect
Details: KDM5B demethylation, FDH-coupled NADH fluorescence (FDH is formaldehyde dehydrogenase); at 57.5 µM (top of the series)
Records with an inconclusive call do not appear.

{"columns": ["compound", "unitsSymbol", "activity, negative = inhibition"],
 "data": [
  ["Cn1ccnc1", "%", -0.951],
  ["NC1(C(=O)O)CCCCC1", "%", -8.23],
  ["CCCCCCCCCCC/C=C\\C(C)(C)/C=C\\CCCC(=O)O", "%", -18.4],
  ["Cc1nc2n(c(=O)c1CCN1CCC(c3noc4cc(F)ccc34)CC1)CCCC2O (stereo unspecified)", "%", -13.2],
  ["CCCCCC(O)CCCC(=O)O (stereo unspecified)", "%", -6.03],
  ["OC[C@H]1O[C@H](n2cnc3c(N[C@H]4CCC[C@@H]4O)ncnc32)[C@H](O)[C@@H]1O", "%", -3.36],
  ["COc1ccc(CCn2nnnc2C2(c3ccc(C)cc3)CC2)cc1", "%", -4.62],
  ["c1ccc(C2CN3CCSC3=N2)cc1 (stereo unspecified)", "%", -3.45],
  ["Cc1ccc([N+](=O)[O-])cc1S(=O)(=O)N(C)C", "%", -0.674],
  ["C[C@@]1(C2CCCC2)Cc2cc(OCC(=O)O)c(Cl)c(Cl)c2C1=O", "%", -5.03],
  ["CC1CCN=C(N)S1 (stereo unspecified)", "%", -2.36],
  ["C#CCn1c(=O)c2c(ncn2C)n(C)c1=O", "%", -2.26],
  ["Brc1c(Br)c(Br)c2[nH]cnc2c1Br", "%", 0.346],
  ["O=[N+]([O-])c1cccc2c(Br)[nH]nc12", "%", -1.9],
  ["COC1(C2=NCCN2)COc2ccccc2O1 (stereo unspecified)", "%", -3.68],
  ["CC(N)(Cc1ccc(O)cc1)C(=O)O (stereo unspecified)", "%", 1.49],
  ["N[C@H](C(=O)O)[C@H](Cc1ccccc1)C(=O)O", "%", -9.48],
  ["O=C(O)C1=CCCN(CCON=C(c2ccccc2)c2ccccc2)C1", "%", 1.04],
  ["OCC1NCC(O)C(O)C1O (stereo unspecified)", "%", -3.55],
  ["COC(=O)C(N)Cc1ccc(Cl)cc1 (stereo unspecified)", "%", -3.16],
  ["N[C@@H](CS(=O)O)C(=O)O", "%", -4.61],
  ["CNCCc1cnc(CCC(c2ccccc2)c2ccccc2)[nH]1", "%", -15.1],
  ["COc1ccccc1N1CCN(CCCCNC(=O)c2ccc3ccccc3c2)CC1", "%", -7.43],
  ["O=C(O)CCC/C=C\\C[C@@H]1[C@@H](/C=C/[C@H](O)C2Cc3ccccc3C2)[C@@H](F)C[C@@H]1O", "%", -5.83],
  ["CN1CC(O)C(O)C(O)C1CO (stereo unspecified)", "%", -6.96],
  ["COc1ccccc1N1CCN(CCCCN2C(=O)c3ccccc3C2=O)CC1", "%", -4.4]
]}

Just for reference, PubChem BioAssay (NCATS) is where these values come from.
